- Species on record: Danio rerio
- protocol: Toxicity in 24 to 72 hrs post fertilized zebra fish embryo harboring fli1:EGFP
- Format: organism-based
- reported conditions: zebrafish, in vivo
Readings of LC100 for the listed molecules

Which value of LC100 has been reported for CN(C)CCNC(=O)COc1c(O)cc2oc(-c3ccccc3)cc(=O)c2c1O in the records?
> 200 µM

Report LC100 for O=C(COc1c(OCc2ccccc2)cc2oc(-c3ccccc3)cc(=O)c2c1O)N1CCCC1 please.
> 200 µM

What measured LC100 goes with O=c1cc(-c2ccccc2)oc2cc(OCCCO)c(O)c(O)c12 ?
> 200 µM
